tested on: Bacillus thuringiensis; test: Antibacterial activity against Bacillus thuringiensis ATCC 10792 after 8 to 12 hrs by resazurin dye based microdilution method; format: functional
measurement.type: MIC (µg/mL)
Numbers only; they are read as µg/mL.

Recorded MIC, per entry:
molecular.string	target.system	MIC (µg/mL)
CCCCCCC(=O)c1c(O)cc(O)c([C@@H](CC(C)C)C2=C(O)C(C)(C)C(=O)C(C)(C)C2=O)c1O	Bacillus thuringiensis	0.5
CCCCCCCCCCCCCC(=O)c1c(O)cc(O)c([C@@H](CC(C)C)C2=C(O)C(C)(C)C(=O)C(C)(C)C2=O)c1O	Bacillus thuringiensis	2
CCCCCCCCCCCC(=O)c1c(O)cc(O)c([C@@H](CC(C)C)C2=C(O)C(C)(C)C(=O)C(C)(C)C2=O)c1O	Bacillus thuringiensis	0.5
CCCCCCCCCC(=O)c1c(O)cc(O)c([C@@H](CC(C)C)C2=C(O)C(C)(C)C(=O)C(C)(C)C2=O)c1O	Bacillus thuringiensis	0.5
CCCCCCCCC(=O)c1c(O)cc(O)c([C@@H](CC(C)C)C2=C(O)C(C)(C)C(=O)C(C)(C)C2=O)c1O	Bacillus thuringiensis	0.5

IN: State its MIC for this molecule: CCCCCCCCCCC(=O)c1c(O)cc(O)c([C@@H](CC(C)C)C2=C(O)C(C)(C)C(=O)C(C)(C)C2=O)c1O
OUT: 0.25

IN: Return the recorded MIC value; entry: CCCCCCCC(=O)c1c(O)cc(O)c([C@@H](CC(C)C)C2=C(O)C(C)(C)C(=O)C(C)(C)C2=O)c1O
OUT: 0.25

IN: Give a short answer stating reported MIC for CCCCCCCCCCCCCCCC(=O)c1c(O)cc(O)c([C@@H](CC(C)C)C2=C(O)C(C)(C)C(=O)C(C)(C)C2=O)c1O .
OUT: 2

IN: Determine its reported MIC: CN[C@H](CC(C)C)C(=O)N[C@H]1C(=O)N[C@@H](CC(N)=O)C(=O)N[C@H]2C(=O)N[C@H]3C(=O)N[C@H](C(=O)N[C@H](C(=O)O)c4cc(O)cc(O)c4-c4cc3ccc4O)[C@H](O)c3ccc(c(Cl)c3)Oc3cc2cc(c3O[C@@H]2O[C@H](CO)[C@@H](O)[C@H](O)[C@H]2O[C@H]2C[C@](C)(N)[C@H](O)[C@H](C)O2)Oc2ccc(cc2Cl)[C@H]1O
OUT: 1

---

test system: Staphylococcus aureus; assay: Antibacterial activity against drug-susceptible Staphylococcus aureus ATCC 6538 after 8 to 12 hrs by resazurin dye based microdilution method; type: functional
Lab note - cut at 0.5 µg/mL for MIC: true (1) if strictly below, false (0) if not.

These recorded examples may help you get a feel for the data.
molecular.string	label
CCCCCCCCCCC(=O)c1c(O)cc(O)c([C@@H](CC(C)C)C2=C(O)C(C)(C)C(=O)C(C)(C)C2=O)c1O	true (1)
CCCC(=O)c1c(O)cc(O)c([C@@H](CC(C)C)C2=C(O)C(C)(C)C(=O)C(C)(C)C2=O)c1O	false (0)
CC(C)C[C@@H](C1=C(O)C(C)(C)C(=O)C(C)(C)C1=O)c1c(O)cc(O)c(C(=O)Cc2ccccc2)c1O	false (0)
CC(C)C[C@@H](C1=C(O)C(C)(C)C(=O)C(C)(C)C1=O)c1c(O)cc(O)c(C(=O)C2CCCCC2)c1O	false (0)
CC(C)C[C@@H](C1=C(O)C(C)(C)C(=O)C(C)(C)C1=O)c1c(O)cc(O)c(C(=O)C2CCC2)c1O	false (0)

IN: Field: below-cutoff. Rule: recorded MIC strictly less than 0.5 µg/mL. Subject: CCCCCCCCCCCCCCCC(=O)c1c(O)cc(O)c([C@@H](CC(C)C)C2=C(O)C(C)(C)C(=O)C(C)(C)C2=O)c1O
OUT: false (0)

IN: State whether 0.5 µg/mL exceeds MIC recorded for CC(C)C[C@@H](C1=C(O)C(C)(C)C(=O)C(C)(C)C1=O)c1c(O)cc(O)c(C(=O)CCc2ccccc2)c1O .
OUT: false (0)

IN: Is 0.5 µg/mL strictly greater than the compound's reported MIC? compound: CC(=O)c1c(O)cc(O)c([C@@H](CC(C)C)C2=C(O)C(C)(C)C(=O)C(C)(C)C2=O)c1O
OUT: false (0)

IN: Does the reported MIC of the following compound sit strictly below 0.5 µg/mL? CCCCCCCC(=O)c1c(O)cc(O)c([C@@H](CC(C)C)C2=C(O)C(C)(C)C(=O)C(C)(C)C2=O)c1O
OUT: true (1)

IN: In the record for CCCCCCCCC(=O)c1c(O)cc(O)c([C@@H](CC(C)C)C2=C(O)C(C)(C)C(=O)C(C)(C)C2=O)c1O , is MIC less than 0.5 µg/mL?
OUT: true (1)

IN: I wonder whether CC(C)CC(=O)c1c(O)cc(O)c([C@@H](CC(C)C)C2=C(O)C(C)(C)C(=O)C(C)(C)C2=O)c1O has MIC below 0.5 µg/mL. Can you tell?
OUT: false (0)

IN: Is 0.5 µg/mL strictly greater than the compound's reported MIC? compound: CC(C)C[C@@H](C1=C(O)C(C)(C)C(=O)C(C)(C)C1=O)c1c(O)cc(O)c(C(=O)C2CCCC2)c1O
OUT: false (0)

IN: In the record for CC(C)C[C@@H](C1=C(O)C(C)(C)C(=O)C(C)(C)C1=O)c1c(O)cc(O)c(C(=O)C(C)C)c1O , is MIC less than 0.5 µg/mL?
OUT: false (0)

IN: Is 0.5 µg/mL strictly greater than the compound's reported MIC? compound: CCCCC(=O)c1c(O)cc(O)c([C@@H](CC(C)C)C2=C(O)C(C)(C)C(=O)C(C)(C)C2=O)c1O
OUT: false (0)

IN: Please indicate whether the reported MIC of CC(C)C[C@@H](C1=C(O)C(C)(C)C(=O)C(C)(C)C1=O)c1c(O)cc(O)c(C=O)c1O is strictly below 0.5 µg/mL.
OUT: false (0)

IN: A record lists CCCCCC(=O)c1c(O)cc(O)c([C@@H](CC(C)C)C2=C(O)C(C)(C)C(=O)C(C)(C)C2=O)c1O . Is its MIC below 0.5 µg/mL?
OUT: false (0)

IN: Consider CCC(=O)c1c(O)cc(O)c([C@@H](CC(C)C)C2=C(O)C(C)(C)C(=O)C(C)(C)C2=O)c1O . Does its MIC lie strictly below 0.5 µg/mL?
OUT: false (0)

IN: API: query returns whether the compound falls strictly under 0.5 µg/mL in MIC. Query: CCCCCCCCCC(=O)c1c(O)cc(O)c([C@@H](CC(C)C)C2=C(O)C(C)(C)C(=O)C(C)(C)C2=O)c1O
OUT: true (1)
